assay: Steady state plasma concentrations in subjects on chronic bupropion XL; details: steady state plasma, 5 subjects, normalized to 300 mg/day bupropion dose
Marks after values point to notes of the source that are not given here.
measured.endpoint: Mean [I] (Range, n=5)

Here is how some molecules turned out for Mean [I] (Range, n=5).
C[C@@H](NC(C)(C)C)C(=O)c1ccc(O)c(Cl)c1 : 0.01 µM
C[C@@H]1NC(C)(C)CO[C@@]1(O)c1cccc(Cl)c1 : 0.39 ^* (0.26–0.67) μM

Ask: Look at this molecule and give its reported Mean [I] (Range, n=5). C[C@H](NC(C)(C)C)C(=O)c1cccc(Cl)c1 [S-Bupropion, S-bupropion, reference compound]
Result: 0.08 ^* (0.02–0.11) μM

----------
target: CYP2D6 (Homo sapiens); test: CYP2D6 inhibition in human suspension hepatocytes
Sequence (P10635 whole entry): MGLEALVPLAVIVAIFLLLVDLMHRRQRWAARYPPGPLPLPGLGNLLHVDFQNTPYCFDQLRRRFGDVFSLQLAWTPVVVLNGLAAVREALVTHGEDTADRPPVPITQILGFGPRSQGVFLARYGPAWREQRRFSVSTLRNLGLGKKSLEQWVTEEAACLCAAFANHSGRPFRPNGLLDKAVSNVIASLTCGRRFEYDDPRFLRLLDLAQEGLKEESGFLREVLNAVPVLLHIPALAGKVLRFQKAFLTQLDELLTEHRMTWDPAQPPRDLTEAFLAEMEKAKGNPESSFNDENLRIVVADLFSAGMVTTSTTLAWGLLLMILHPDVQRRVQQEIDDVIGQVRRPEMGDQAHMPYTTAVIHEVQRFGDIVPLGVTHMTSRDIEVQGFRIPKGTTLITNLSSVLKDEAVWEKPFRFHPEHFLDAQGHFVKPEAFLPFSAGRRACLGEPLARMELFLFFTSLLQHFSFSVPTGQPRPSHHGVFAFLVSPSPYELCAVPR
measured.endpoint: pIC50
Remember the convention: pIC50 equals -log10 of concentration in molar.

Ask: Field request: pIC50 | item: CC(NC(C)(C)C)C(=O)c1cccc(Cl)c1 (stereo not shown)
Result: 4.89

----------
experiment: Media concentrations of bupropion and metabolites in plated human hepatocytes; details: plated human hepatocytes, 1 hr incubation after 71 hours treatment
measured.endpoint: Cmedia at 72 hr (µM)
Express it in µM; write the number only.

Field: example entries. Status: answers known.
C[C@H]1NC(C)(C)CO[C@]1(O)c1cccc(Cl)c1 [R,R-OH-bupropion] : 19
CC(NC(C)(C)C)C(O)c1cccc(Cl)c1 (stereo not drawn) [Erythro-hydrobupropion, erythrohydrobupropion] : 2.1

Ask: For C[C@@H]1NC(C)(C)CO[C@@]1(O)c1cccc(Cl)c1 [S,S-OH-bupropion] , what is its reported Cmedia at 72 hr?
Result: 1.5

Ask: Cool, now C[C@H](NC(C)(C)C)[C@@H](O)c1cccc(Cl)c1 [Threo-hydrobupropion, threohydrobupropion]
Result: 8.2

----------
Entries and their Cmedia at 1 hr values follow.
assay: Media concentrations of bupropion and metabolites in plated human hepatocytes; conditions: plated human hepatocytes, after 1 hr incubation without pretreatment
# output: bare number, implied unit µM

Some entries whose results are on file:
C[C@@H]1NC(C)(C)CO[C@@]1(O)c1cccc(Cl)c1 [S,S-OH-bupropion] : 1.3
C[C@H]1NC(C)(C)CO[C@]1(O)c1cccc(Cl)c1 [R,R-OH-bupropion] : 16
C[C@H](NC(C)(C)C)[C@@H](O)c1cccc(Cl)c1 [Threo-hydrobupropion, threohydrobupropion] : 7.1

Continue with the molecule presented below.
Ask: What does the record list as Cmedia at 1 hr for CC(NC(C)(C)C)C(O)c1cccc(Cl)c1 (stereo not drawn) [Erythro-hydrobupropion, erythrohydrobupropion] ?
Result: 1.6

----------
molecular target: UniProtKB P10635; experiment: CYP2D6 activity in plated human hepatocytes; conditions: after 72 hr treatment
Measured Apparent Percent Inhibition at 72 hrs, listed per entry for reference.
Respond numerically; units are % and should not be typed.

Illustrative cases are given below, each with its answer.
CC(NC(C)(C)C)C(O)c1cccc(Cl)c1 (stereo not drawn) [Erythro-hydrobupropion, erythrohydrobupropion] : 93
C[C@@H]1NC(C)(C)CO[C@@]1(O)c1cccc(Cl)c1 : 60
C[C@H](NC(C)(C)C)[C@@H](O)c1cccc(Cl)c1 [Threo-hydrobupropion, threohydrobupropion] : 92

Ask: Suppose we examine the molecule C[C@H]1NC(C)(C)CO[C@]1(O)c1cccc(Cl)c1 ; what Apparent Percent Inhibition at 72 hrs value has been reported?
Result: 83
